assayed.target: human PPARdelta (Homo sapiens, UniProt Q03181)
Construct: amino acids S139-Y441
assay.text: cellular PPARdelta assay (stably transfected HEK luciferase reporter cell line)
pEC50 for assorted molecules
In textbook form, pEC50 equals minus log to base ten of the concentration in mol/L.

Worked set:
COc1ccc2oc(COc3ccc(S(=O)(=O)Nc4nnc(C(C)C)s4)cc3)cc2c1	6.32
COc1ccc(-c2nc(COc3ccc(S(=O)(=O)Nc4nnc(C(C)C)s4)cc3)co2)cc1	6.19

--- query ---
Exercise: # query: pEC50 of entry COc1ccc(-c2nc(COc3ccc(S(=O)(=O)Nc4nnc(C(C)C)s4)cc3)no2)cc1
Key: 6.59

---

pEC50 for assorted compounds
assayed.target: human PPARdelta (Homo sapiens, UniProt Q03181)
Construct: amino acids S139-Y441
Sequence (Q03181 139-441): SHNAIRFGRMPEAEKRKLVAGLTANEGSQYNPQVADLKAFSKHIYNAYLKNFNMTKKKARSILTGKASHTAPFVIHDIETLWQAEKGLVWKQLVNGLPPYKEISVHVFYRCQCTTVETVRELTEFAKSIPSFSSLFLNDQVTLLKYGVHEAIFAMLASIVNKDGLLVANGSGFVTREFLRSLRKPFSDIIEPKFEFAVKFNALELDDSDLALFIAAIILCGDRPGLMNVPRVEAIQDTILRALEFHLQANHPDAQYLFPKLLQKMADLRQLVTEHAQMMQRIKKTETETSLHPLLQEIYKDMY
assay.text: cellular PPARdelta assay (stably transfected HEK luciferase reporter cell line)
In textbook form, pEC50 equals minus log to base ten of the concentration in mol/L.

CC(C)c1nnc(NS(=O)(=O)c2ccc(OCc3ccc(Oc4ccc(C(F)(F)F)cc4)cc3)cc2)s1 [Example 4]	5.95

Exercise: # query: pEC50 of entry Cc1nc(-c2ccc(C(F)(F)F)cc2)sc1COc1ccc(S(=O)(=O)Nc2nnc(C(C)C)s2)cc1 [Example 1]
Key: 6.43

Exercise: # query: pEC50 of entry COc1ccc2c(COc3ccc(S(=O)(=O)Nc4nnc(C(C)C)s4)cc3)coc2c1 [Example 3]
Key: 6.32

Exercise: # query: pEC50 of entry CCc1oc(-c2cccc(C(F)(F)F)c2)nc1COc1ccc(S(=O)(=O)Nc2nnc(C(C)C)s2)cc1 [Example 14]
Key: 6.17

---

EC50 for assorted molecules
assayed.target: human PPARalpha (Homo sapiens)
Construct: amino acids S167-Y468
Sequence (Q07869 167-468): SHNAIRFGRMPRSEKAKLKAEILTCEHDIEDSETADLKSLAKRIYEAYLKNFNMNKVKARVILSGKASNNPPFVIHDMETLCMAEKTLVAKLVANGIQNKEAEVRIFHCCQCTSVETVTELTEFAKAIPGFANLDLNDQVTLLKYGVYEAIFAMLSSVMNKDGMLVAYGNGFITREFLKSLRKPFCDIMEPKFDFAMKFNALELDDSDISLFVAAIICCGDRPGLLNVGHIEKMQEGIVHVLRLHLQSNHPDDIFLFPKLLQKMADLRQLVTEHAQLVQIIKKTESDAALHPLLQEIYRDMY
assay.text: cellular PPARalpha assay (stably transfected HEK luciferase reporter cell line)
Record the value in nM, omitting the unit from your answer.

Worked set:
COc1ccc(-c2nc(COc3ccc(S(=O)(=O)Nc4nnc(C(C)C)s4)cc3)co2)cc1 [Example 13]	1200
COc1ccc(-c2nc(COc3ccc(S(=O)(=O)Nc4nnc(C(C)C)s4)cc3)no2)cc1 [Example 9]	1420

Exercise: # query: EC50 of entry CC(C)c1nnc(NS(=O)(=O)c2ccc(OCc3ccc(Oc4ccc(C(F)(F)F)cc4)cc3)cc2)s1 [Example 4]
Key: 540

Exercise: # query: EC50 of entry Cc1nc(-c2ccc(C(F)(F)F)cc2)sc1COc1ccc(S(=O)(=O)Nc2nnc(C(C)C)s2)cc1 [Example 1]
Key: 2900

Exercise: # query: EC50 of entry COc1ccc2c(COc3ccc(S(=O)(=O)Nc4nnc(C(C)C)s4)cc3)coc2c1 [Example 3]
Key: 4570

Exercise: # query: EC50 of entry CCc1oc(-c2cccc(C(F)(F)F)c2)nc1COc1ccc(S(=O)(=O)Nc2nnc(C(C)C)s2)cc1 [Example 14]
Key: 190

---

EC50 for assorted compounds
assayed.target: human PPARgamma (Homo sapiens, UniProt P37231)
Construct: amino acids 1152-Y475
Sequence (P37231 210-505 limits assumed): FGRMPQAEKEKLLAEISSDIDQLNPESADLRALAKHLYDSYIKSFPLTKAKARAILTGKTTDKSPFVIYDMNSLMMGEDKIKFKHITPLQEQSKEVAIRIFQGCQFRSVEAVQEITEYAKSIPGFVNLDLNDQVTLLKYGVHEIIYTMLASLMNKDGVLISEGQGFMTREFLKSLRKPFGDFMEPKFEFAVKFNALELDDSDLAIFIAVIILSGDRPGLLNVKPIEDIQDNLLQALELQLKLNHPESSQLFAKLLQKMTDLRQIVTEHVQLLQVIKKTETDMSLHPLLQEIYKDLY
assay.text: cellular PPARgamma assay (transiently transfected HEK cells, luciferase reporter)
Note to self: number, then unit, no commentary.

Worked set:
COc1ccc(-c2nc(COc3ccc(S(=O)(=O)Nc4nnc(C(C)C)s4)cc3)co2)cc1	1970 nM
CC(C)c1nnc(NS(=O)(=O)c2ccc(OCc3ccc(Oc4ccc(C(F)(F)F)cc4)cc3)cc2)s1	460 nM
Cc1nc(-c2ccc(C(F)(F)F)cc2)sc1COc1ccc(S(=O)(=O)Nc2nnc(C(C)C)s2)cc1	50 nM

Exercise: # query: EC50 of entry COc1ccc(-c2nc(COc3ccc(S(=O)(=O)Nc4nnc(C(C)C)s4)cc3)no2)cc1
Key: 50 nM

Exercise: # query: EC50 of entry CCc1oc(-c2cccc(C(F)(F)F)c2)nc1COc1ccc(S(=O)(=O)Nc2nnc(C(C)C)s2)cc1
Key: 1 nM

Exercise: # query: EC50 of entry COc1ccc2c(COc3ccc(S(=O)(=O)Nc4nnc(C(C)C)s4)cc3)coc2c1
Key: 460 nM
